study.target: POU2 (OCT2 POU domain);BOB1 (OBF1, OCA-B) (human;human, UniProt P09086;Q16633 175-386;1-256, |)
Sequence 1: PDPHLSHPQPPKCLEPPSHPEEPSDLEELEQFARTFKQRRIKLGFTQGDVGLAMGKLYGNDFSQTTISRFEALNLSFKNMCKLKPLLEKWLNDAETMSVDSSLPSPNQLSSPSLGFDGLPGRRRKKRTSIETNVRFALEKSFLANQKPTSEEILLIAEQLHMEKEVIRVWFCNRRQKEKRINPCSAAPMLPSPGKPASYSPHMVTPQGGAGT
Sequence 2: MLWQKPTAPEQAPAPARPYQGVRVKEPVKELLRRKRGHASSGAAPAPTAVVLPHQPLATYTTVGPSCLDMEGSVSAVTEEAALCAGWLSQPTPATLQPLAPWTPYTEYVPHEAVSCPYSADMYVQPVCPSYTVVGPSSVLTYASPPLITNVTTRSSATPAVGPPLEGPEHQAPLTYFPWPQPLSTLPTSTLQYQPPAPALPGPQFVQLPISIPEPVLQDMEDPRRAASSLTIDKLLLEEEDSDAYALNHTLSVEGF
assay.details: EMSA-SELEX-seq; with BOB1 (ternary complex band); 20 mM Tris-HCl pH 7.6, 140 mM NaCl, 10% glycerol, 0.5 mM EDTA, 0.05% Triton X-100, 0.1 mg/mL BSA, 0.1 mg/mL poly(dI-dC), 5 mM DTT, room temperature, 20 min; high values mean tight binding
assay.conditions: protein: recombinant;recombinant; copies: 1;1; dsDNA, one strand shown
observation.type: binding signal

AATCTAAA; 0.0669 % of ANNNNAAN 8-mers
AGTGCAAG; 0.0264 % of ANNNNAAN 8-mers
ATTTCAAA; 0.0751 % of ANNNNAAN 8-mers
AGGATAAC; 0.0355 % of ANNNNAAN 8-mers
ATTAAAAC; 0.0718 % of ANNNNAAN 8-mers
ACTTTAAT; 0.066 % of ANNNNAAN 8-mers
AGGTGAAG; 0.0471 % of ANNNNAAN 8-mers
AAATGAAT; 0.239 % of ANNNNAAN 8-mers

Recorded binding signal (sequence `ACGAGAAT` ): 0.0553 % of ANNNNAAN 8-mers

Recorded binding signal (sequence `AACTCAAG` ): 0.0289 % of ANNNNAAN 8-mers

Recorded binding signal (sequence `AGTGTAAA` ): 0.052 % of ANNNNAAN 8-mers

Recorded binding signal (sequence `AGTACAAT` ): 0.0462 % of ANNNNAAN 8-mers

Recorded binding signal (sequence `ACTATAAC` ): 0.0239 % of ANNNNAAN 8-mers

Recorded binding signal (sequence `ACAGAAAT` ): 0.0504 % of ANNNNAAN 8-mers

Recorded binding signal (sequence `ATCGTAAA` ): 0.0471 % of ANNNNAAN 8-mers

Recorded binding signal (sequence `ATGTCAAG` ): 0.052 % of ANNNNAAN 8-mers

----------
study.target: POU1 (OCT1 POU domain);BOB1 (OBF1, OCA-B) (human;human, UniProt P14859;Q16633 260-458;1-256, |)
Sequence (P14859 260-458, one chain of several): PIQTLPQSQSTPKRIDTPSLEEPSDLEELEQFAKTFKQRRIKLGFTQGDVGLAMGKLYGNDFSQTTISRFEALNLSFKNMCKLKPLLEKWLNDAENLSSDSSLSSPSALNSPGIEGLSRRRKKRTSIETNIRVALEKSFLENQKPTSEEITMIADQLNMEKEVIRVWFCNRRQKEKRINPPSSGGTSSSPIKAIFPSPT
assay.details: EMSA-SELEX-seq; with BOB1 (ternary complex band); 20 mM Tris-HCl pH 7.6, 140 mM NaCl, 10% glycerol, 0.5 mM EDTA, 0.05% Triton X-100, 0.1 mg/mL BSA, 0.1 mg/mL poly(dI-dC), 5 mM DTT, room temperature, 20 min; high values mean tight binding
assay.conditions: protein: recombinant;recombinant; copies: 1;1; dsDNA, one strand shown
observation.type: binding signal

# example entries with known answers
ATCTTAAT; 0.103 % of ANNNNAAN 8-mers
ACACCAAT; 0.0168 % of ANNNNAAN 8-mers
ATAATAAG; 0.094 % of ANNNNAAN 8-mers

Recorded binding signal (sequence `ATGCTAAT` ): 0.249 % of ANNNNAAN 8-mers

Recorded binding signal (sequence `AACTGAAA` ): 0.0382 % of ANNNNAAN 8-mers

----------
study.target: POU1 (OCT1 POU domain);BOB1 (OBF1, OCA-B) (human;human, UniProt P14859;Q16633 260-458;1-256, |)
assay.details: EMSA-SELEX-seq; with BOB1 (ternary complex band); 20 mM Tris-HCl pH 7.6, 140 mM NaCl, 10% glycerol, 0.5 mM EDTA, 0.05% Triton X-100, 0.1 mg/mL BSA, 0.1 mg/mL poly(dI-dC), 5 mM DTT, room temperature, 20 min; high values mean tight binding
assay.conditions: protein: recombinant;recombinant; copies: 1;1; dsDNA, one strand shown
binding signal for assorted sequences

# example entries with known answers
ACATGAAT; 0.0773 % of ANNNNAAN 8-mers
ATACGAAC; 0.032 % of ANNNNAAN 8-mers
AAATCAAG; 0.132 % of ANNNNAAN 8-mers
ACTCTAAT; 0.0316 % of ANNNNAAN 8-mers
ATCACAAA; 0.0539 % of ANNNNAAN 8-mers

Recorded binding signal (sequence `AGGGAAAT` ): 0.963 % of ANNNNAAN 8-mers

Recorded binding signal (sequence `AAGGGAAA` ): 0.255 % of ANNNNAAN 8-mers

Recorded binding signal (sequence `ATTGAAAA` ): 0.0925 % of ANNNNAAN 8-mers

Recorded binding signal (sequence `AGGCGAAT` ): 0.0593 % of ANNNNAAN 8-mers

Recorded binding signal (sequence `AGAGGAAT` ): 0.0652 % of ANNNNAAN 8-mers

Recorded binding signal (sequence `ATCAGAAA` ): 0.0546 % of ANNNNAAN 8-mers

Recorded binding signal (sequence `AGTGAAAC` ): 0.0324 % of ANNNNAAN 8-mers

----------
binding signal for assorted sequences
study.target: POU1 (OCT1 POU domain);BOB1 (OBF1, OCA-B) (human;human, UniProt P14859;Q16633 260-458;1-256, |)
assay.details: EMSA-SELEX-seq; with BOB1 (ternary complex band); 20 mM Tris-HCl pH 7.6, 140 mM NaCl, 10% glycerol, 0.5 mM EDTA, 0.05% Triton X-100, 0.1 mg/mL BSA, 0.1 mg/mL poly(dI-dC), 5 mM DTT, room temperature, 20 min; high values mean tight binding
assay.conditions: protein: recombinant;recombinant; copies: 1;1; dsDNA, one strand shown

ATGGGAAG; 0.0683 % of ANNNNAAN 8-mers
ACTCAAAC; 0.03 % of ANNNNAAN 8-mers
AAGTAAAT; 0.227 % of ANNNNAAN 8-mers
ACCAGAAT; 0.0293 % of ANNNNAAN 8-mers

Recorded binding signal (sequence `AATAAAAT` ): 0.185 % of ANNNNAAN 8-mers

Recorded binding signal (sequence `AAGATAAG` ): 0.046 % of ANNNNAAN 8-mers

Recorded binding signal (sequence `AGCGAAAT` ): 0.0492 % of ANNNNAAN 8-mers

Recorded binding signal (sequence `AAATGAAC` ): 0.11 % of ANNNNAAN 8-mers

Recorded binding signal (sequence `AATACAAG` ): 0.0675 % of ANNNNAAN 8-mers

Recorded binding signal (sequence `ATTTGAAG` ): 0.0909 % of ANNNNAAN 8-mers

----------
study.target: POU1 (OCT1 POU domain) (human, UniProt P14859 260-458)
Sequence (P14859 260-458): as the sequence (P14859 260-458, one chain of several) above
assay.details: EMSA-SELEX-seq; no BOB1; 20 mM Tris-HCl pH 7.6, 140 mM NaCl, 10% glycerol, 0.5 mM EDTA, 0.05% Triton X-100, 0.1 mg/mL BSA, 0.1 mg/mL poly(dI-dC), 5 mM DTT, room temperature, 20 min; high values mean tight binding
assay.conditions: protein: recombinant; dsDNA, one strand shown
observation.type: binding signal

# example entries with known answers
ATATGAAT; 0.243 % of ANNNNAAN 8-mers
ATTTCAAC; 0.0416 % of ANNNNAAN 8-mers
ACTAAAAG; 0.0282 % of ANNNNAAN 8-mers
ACTATAAG; 0.029 % of ANNNNAAN 8-mers
ACCACAAC; 0.0107 % of ANNNNAAN 8-mers

Recorded binding signal (sequence `ACTACAAA` ): 0.0214 % of ANNNNAAN 8-mers

Recorded binding signal (sequence `ATACGAAG` ): 0.0481 % of ANNNNAAN 8-mers

----------
binding signal for assorted sequences
study.target: POU1 (OCT1 POU domain) (human, UniProt P14859 260-458)
assay.details: EMSA-SELEX-seq; no BOB1; 20 mM Tris-HCl pH 7.6, 140 mM NaCl, 10% glycerol, 0.5 mM EDTA, 0.05% Triton X-100, 0.1 mg/mL BSA, 0.1 mg/mL poly(dI-dC), 5 mM DTT, room temperature, 20 min; high values mean tight binding
assay.conditions: protein: recombinant; dsDNA, one strand shown

# example entries with known answers
ATGGCAAC; 0.0263 % of ANNNNAAN 8-mers
ACTGCAAA; 0.0416 % of ANNNNAAN 8-mers
ACGACAAA; 0.0217 % of ANNNNAAN 8-mers
ACAGAAAA; 0.0389 % of ANNNNAAN 8-mers
ACGACAAC; 0.0126 % of ANNNNAAN 8-mers
AAAGCAAA; 0.106 % of ANNNNAAN 8-mers
ATATAAAG; 0.0725 % of ANNNNAAN 8-mers
AGCAGAAC; 0.0179 % of ANNNNAAN 8-mers
AATTTAAT; 0.306 % of ANNNNAAN 8-mers
AAGCTAAG; 0.0248 % of ANNNNAAN 8-mers

Recorded binding signal (sequence `AAAGTAAC` ): 0.0439 % of ANNNNAAN 8-mers
